Molecular target: UniProtKB P41595
Sequence (P41595 whole entry): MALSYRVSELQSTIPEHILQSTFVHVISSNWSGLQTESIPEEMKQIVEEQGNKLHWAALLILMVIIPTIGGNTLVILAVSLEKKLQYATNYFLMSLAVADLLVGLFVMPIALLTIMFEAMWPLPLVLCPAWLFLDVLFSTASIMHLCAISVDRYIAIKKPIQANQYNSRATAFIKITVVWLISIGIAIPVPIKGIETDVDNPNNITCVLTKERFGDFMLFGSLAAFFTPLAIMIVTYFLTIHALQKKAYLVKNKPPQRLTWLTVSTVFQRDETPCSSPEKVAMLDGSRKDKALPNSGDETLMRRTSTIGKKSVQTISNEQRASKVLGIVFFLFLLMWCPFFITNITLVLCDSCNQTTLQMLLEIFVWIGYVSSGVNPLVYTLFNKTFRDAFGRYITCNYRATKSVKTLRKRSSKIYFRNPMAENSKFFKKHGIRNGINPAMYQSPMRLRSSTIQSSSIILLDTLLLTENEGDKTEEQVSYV
Experiment: Radioreceptor competitive binding, [3H]mesulergine (4-PAT series)
Conditions: 1.95 nM [3H]mesulergine; read-out: Affinity (Ki ± SEM) 5-HT2B
READOUT: pKi
// field semantics: pKi = negative decimal log of concentration (mol/L)

stdin: Field: pKi (UniProtKB P41595). Entry: COc1cc2c(cc1Cl)C[C@@H](N(C)C)C[C@@H]2c1cccc(Br)c1 (single isomer, unassigned) [Compound 7j]
stdout: 7.30

stdin: Field: pKi (UniProtKB P41595). Entry: COc1ccc2c(c1)[C@@H](c1cccc(Cl)c1)C[C@H](N(C)C)C2 (single isomer, unassigned) [Compound 7k]
stdout: 6.51

stdin: Field: pKi (UniProtKB P41595). Entry: CN(C)[C@@H]1Cc2cc(Cl)c(O)cc2[C@@H](c2ccccc2)C1 (single isomer, unassigned) [Compound 7m]
stdout: 5.92

stdin: Field: pKi (UniProtKB P41595). Entry: COc1cc2c(cc1Cl)C[C@@H](N(C)C)C[C@@H]2c1cccc(Br)c1 (single isomer, unassigned) [Compound 7i]
stdout: 6.77

stdin: Field: pKi (UniProtKB P41595). Entry: COc1cc2c(cc1Cl)C[C@@H](N(C)C)C[C@@H]2c1ccccc1 (single isomer, unassigned)
stdout: 7.76

stdin: Field: pKi (UniProtKB P41595). Entry: COc1cc2c(cc1Cl)C[C@@H](N(C)C)C[C@H]2c1ccccc1 (single isomer, unassigned) [Compound 7c]
stdout: 5.60

stdin: Field: pKi (UniProtKB P41595). Entry: CN(C)[C@@H]1Cc2cc(Cl)c(O)cc2[C@@H](c2ccccc2)C1 (single isomer, unassigned) [Compound 7n]
stdout: 7.04

stdin: Field: pKi (UniProtKB P41595). Entry: COc1ccc2c(c1)[C@@H](c1cccc(Cl)c1)C[C@H](N(C)C)C2 (single isomer, unassigned) [Compound 7l]
stdout: 7.19

stdin: Field: pKi (UniProtKB P41595). Entry: COc1cc2c(cc1Cl)C[C@@H](N(C)C)C[C@H]2c1ccccc1 (single isomer, unassigned) [Compound 7d]
stdout: 7.37

stdin: Field: pKi (UniProtKB P41595). Entry: COc1cc2c(cc1Cl)CC(N(C)C)CC2c1cccc(Cl)c1 (single isomer, unassigned) [Compound 7f]
stdout: 7.25

Values compiled from patent US11021435B2.
